Please provide measured hemolysis at 5 ug/ml for the entries that follow.
experiment: Toxicity against human erythrocytes assessed as hemolytic activity at 5 ug/ml; assay type: cell-based, Erythrocyte; details: read-out: Activity
The response must be a number in % with no trailing unit.

# input State its hemolysis at 5 ug/ml for this molecule: CNC(=O)[C@H]1[C@@H]2C[C@@H](O[C@H]3O[C@@H](C)[C@H](O)[C@@H](N)[C@H]3O)/C=C/C=C/C=C/C=C/C=C/C=C/C=C/[C@H](C)[C@@H](O)[C@@H](C)[C@H](C)OC(=O)C[C@H](O)C[C@H](O)C[C@H](O)CC[C@@H](O)[C@H](O)C[C@](O)(C[C@@H]1O)O2
# output 5

# input State its hemolysis at 5 ug/ml for this molecule: C[C@@H]1[C@H](O)[C@@H](C)/C=C/C=C/C=C/C=C/C=C/C=C/C=C/[C@H](O[C@H]2O[C@@H](C)[C@H](O)[C@@H](N)[C@H]2O)C[C@@H]2O[C@](O)(C[C@@H](O)[C@H](O)CC[C@@H](O)C[C@@H](O)C[C@@H](O)CC(=O)O[C@H]1C)C[C@H](O)[C@H]2C(=O)O
# output 41

# input State its hemolysis at 5 ug/ml for this molecule: COC(=O)C(CO)NC(=O)[C@H]1[C@@H]2C[C@@H](O[C@H]3O[C@@H](C)[C@H](O)[C@@H](N)[C@H]3O)/C=C/C=C/C=C/C=C/C=C/C=C/C=C/[C@H](C)[C@@H](O)[C@@H](C)[C@H](C)OC(=O)C[C@H](O)C[C@H](O)C[C@H](O)CC[C@@H](O)[C@H](O)C[C@](O)(C[C@@H]1O)O2 (some centres not stated)
# output 4

# input State its hemolysis at 5 ug/ml for this molecule: C[C@@H]1[C@H](O)[C@@H](C)/C=C/C=C/C=C/C=C/C=C/C=C/C=C/[C@H](O[C@H]2O[C@@H](C)[C@H](O)[C@@H](N)[C@H]2O)C[C@@H]2O[C@](O)(C[C@@H](O)[C@H](O)CC[C@@H](O)C[C@@H](O)C[C@@H](O)CC(=O)O[C@H]1C)C[C@H](O)[C@H]2C(=O)N[C@H]1[C@H](O)[C@@H](O)[C@H](CO)O[C@H]1O
# output 3

# input State its hemolysis at 5 ug/ml for this molecule: C[C@@H]1[C@H](O)[C@@H](C)/C=C/C=C/C=C/C=C/C=C/C=C/C=C/[C@H](O[C@H]2O[C@@H](C)[C@H](O)[C@@H](NC[C@]3(O)OC[C@@H](O)[C@@H](O)[C@@H]3O)[C@H]2O)C[C@@H]2O[C@](O)(C[C@@H](O)[C@H](O)CC[C@@H](O)C[C@@H](O)C[C@@H](O)CC(=O)O[C@H]1C)C[C@H](O)[C@H]2C(=O)O
# output 5

# input State its hemolysis at 5 ug/ml for this molecule: C[C@@H]1[C@H](O)[C@@H](C)/C=C/C=C/C=C/C=C/C=C/C=C/C=C/[C@H](O[C@H]2O[C@@H](C)[C@H](O)[C@@H](N)[C@H]2O)C[C@@H]2O[C@](O)(C[C@@H](O)[C@H](O)CC[C@@H](O)C[C@@H](O)C[C@@H](O)CC(=O)O[C@H]1C)C[C@H](O)[C@H]2C(=O)NCCCO
# output 4

# input State its hemolysis at 5 ug/ml for this molecule: CCOC(=O)CNC(=O)[C@H]1[C@@H]2C[C@@H](O[C@H]3O[C@@H](C)[C@H](O)[C@@H](N)[C@H]3O)/C=C/C=C/C=C/C=C/C=C/C=C/C=C/[C@H](C)[C@@H](O)[C@@H](C)[C@H](C)OC(=O)C[C@H](O)C[C@H](O)C[C@H](O)CC[C@@H](O)[C@H](O)C[C@](O)(C[C@@H]1O)O2
# output 38
